# target.or.test.system: EPHB2 (UniProt P29323)
# Sequence (P29323 whole entry, looked up): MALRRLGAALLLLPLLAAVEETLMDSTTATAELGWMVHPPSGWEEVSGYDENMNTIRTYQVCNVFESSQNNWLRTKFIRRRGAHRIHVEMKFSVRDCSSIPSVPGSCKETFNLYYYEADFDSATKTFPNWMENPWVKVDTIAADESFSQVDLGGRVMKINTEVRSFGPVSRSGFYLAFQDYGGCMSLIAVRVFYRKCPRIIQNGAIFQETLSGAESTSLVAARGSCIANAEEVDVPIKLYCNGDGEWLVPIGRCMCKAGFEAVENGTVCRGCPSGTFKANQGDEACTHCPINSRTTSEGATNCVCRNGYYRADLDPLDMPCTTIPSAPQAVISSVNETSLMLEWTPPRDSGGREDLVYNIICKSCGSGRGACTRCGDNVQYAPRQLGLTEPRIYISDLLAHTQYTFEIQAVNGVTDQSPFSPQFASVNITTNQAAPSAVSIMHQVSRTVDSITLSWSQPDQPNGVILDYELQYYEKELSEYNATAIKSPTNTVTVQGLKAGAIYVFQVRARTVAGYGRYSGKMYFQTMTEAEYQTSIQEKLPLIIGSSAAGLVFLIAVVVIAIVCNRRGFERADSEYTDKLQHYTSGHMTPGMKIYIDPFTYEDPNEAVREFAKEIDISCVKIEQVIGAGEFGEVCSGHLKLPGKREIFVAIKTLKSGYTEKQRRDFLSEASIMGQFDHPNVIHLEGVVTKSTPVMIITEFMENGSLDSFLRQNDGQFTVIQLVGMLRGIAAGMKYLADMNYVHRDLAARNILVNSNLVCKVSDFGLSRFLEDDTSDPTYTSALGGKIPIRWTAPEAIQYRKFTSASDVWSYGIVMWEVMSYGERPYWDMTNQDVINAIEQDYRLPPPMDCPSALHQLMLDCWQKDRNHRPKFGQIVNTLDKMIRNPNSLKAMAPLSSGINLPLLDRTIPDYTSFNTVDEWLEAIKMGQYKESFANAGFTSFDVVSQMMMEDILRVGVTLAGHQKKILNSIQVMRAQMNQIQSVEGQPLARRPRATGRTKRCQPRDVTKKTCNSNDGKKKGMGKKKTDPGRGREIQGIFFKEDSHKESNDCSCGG
# test.summary: phosphorylation enrichment, bacterial display (enrichment ratio); higher = better substrate or ligand; peptides without Tyr show the background;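 note: 11-residue human phosphosite peptides and single-mutation variants displayed on the E. coli surface, counted by deep sequencing, each peptide's frequency after selection divided by its frequency in the unselected input library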;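 note: frequency after pTyr selection over input frequency; kinase dosed for 20-30% of maximal phosphorylation in three min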
Reported phosphorylation enrichment values follow for various sequences
Kindly provide the number alone.

                sequence_chain  test_value
0  KIPGRYYETGS [PAX2_Y72_L69P]       0.424
1   GEEIKYMLWLL [OTC_Y55_S60L]       0.554

Record lookup: for EPHB2 (UniProt P29323), what phosphorylation enrichment belongs to PVADRYDQSFE [MAPK14_Y323_P322R] ?
0.695

Ok, now MSNSAYVKREV [SCN1A_Y1694_F1692S]
0.415

Ok, now EPSLDYMVTKI [CPS1_Y768]
0.727

Ok, now FMMMRYSQNIR [SDAD1_Y656_V660I]
1.23

Ok, now CEHRGFLFLAI [TEK_Y897_Y897F_YF]
0.513

Ok, now GRDQPYSGTGD [TYRO3_Y828_A831T]
0.43

Ok, now EAIAKYDFKAT [GRB2_Y7]
0.412

Ok, now EKKKFYDAKIE [CASP5_Y104_T106A_YF]
0.409

Ok, now ISDNACQYMLT [MYH7_Y162_Y162C]
0.583

Ok, now PTQLPYDHKWE [KIT_Y578]
0.631

Ok, now SLFNGYVFSGV [NEIL3_Y71_YF]
0.567

Ok, now IVRSLYEDPED [VHL_Y185_L188P]
0.698

Ok, now EADRKYEEVAG [TPM3_Y163_R168G]
0.578

Ok, now ANAFIYDVQLP [L1CAM_Y420_V421D_YF]
1.3

Ok, now ELCSEYRKSRK [SPINK5_Y440]
0.489

Ok, now FTFTSYFMHWV [IGHV1-46_Y51_YF]
0.648

Ok, now TLPAFYMENFS [GLB1_Y552_G554E]
0.789

Ok, now LLPNAYIFVVQ [L1CAM_Y418_A415P_YF]
1.06

Ok, now VVKLAYNENDN [CAMKK2_Y183]
0.55

Ok, now WTAHSYRMGSA [ARHGEF7_Y785_T790A]
0.457

Ok, now GLVFLYVEKNQ [PRELP_Y156_M157V]
0.622

Ok, now GLALRYLSDHS [VWF_Y1584]
0.471

Ok, now RCKSHYAAFSV [C1QTNF1_Y145]
0.903

Ok, now RISPEYKQNEI [GJB1_Y243_L239I]
0.73

Ok, now RRESPYGGGGG [FUS_Y526_R524S]
0.546

Ok, now KVGPGYLGSGG [RET_Y826]
0.377

Ok, now LIFVSYDDWDY [GRIN2A_Y281_S278F]
2.52

Ok, now VVKLTYNENDN [CAMKK2_Y183_A182T]
0.545

src = the supplement of paper PMC10065799
